B1: mRNA-splicing (parent)
chain: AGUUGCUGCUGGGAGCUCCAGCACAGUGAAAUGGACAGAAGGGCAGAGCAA

# Variants of: B1
# ASSAY TEXT: exon inclusion enrichment index; higher = more inclusion; WT1 exon 5 minigene, HEK293
Give measured exon inclusion enrichment index for each item. Keep answers brief.
Answers are plain numbers.

- ORDERED RESIDUES: "AGUUGACGACUAGAGCUCCAGCACAGUGAAAUGGACAGAAGGGCAGAGCAA [C6A U7C C9A U10C G11U G12A]"
  exon inclusion enrichment index: 1.25

Batch of 5 variants: report exon inclusion enrichment index for each.
1. AGUUCACACAGGGAGCACCAGCACAGUGAAAUGGACAGAAGGGCAGAGCAA [G5C C6A U7C G8A U10A U17A]
2. AGUUCACACGCGGAGCUCCAGCACAGUGAAAUGGACAGAAGGGCAGAGCAA [G5C C6A U7C G8A U10G G11C]
3. AGUUGAAGAAGGGAGCUCCAGCACAGUGAUAUGGACAGAAGGGCAGAGCAA [C6A U7A C9A U10A A30U]
4. AGUUCACACAGGGAGCUCCAGCACAGUGAAAUGGACCUAAGGGCAGAGCAA [G5C C6A U7C G8A U10A A37C G38U]
5. AGUUGAGAACGGGAGCUCCAGCACAGUGAAAUGGACAGAAGGGCAGAGCAA [C6A U7G G8A C9A U10C]

1. 0.106
2. 2
3. 0.433
4. 0.0457
5. 0.734

Lab note: each variant below needs its exon inclusion enrichment index filled in.
1. AGUUGAAGAAGGGAGCUCCAGCACAGUGAAAAAGACAGAAGGGCAGAGCAA [C6A U7A C9A U10A U32A G33A]
2. AGUUAGAACCGGGAGCUCCAGCACAGUGAAAUGGACAGAAGGGCAGAGCAA [G5A C6G U7A G8A U10C]
3. AGUUGCUGCUGGGAGCUCCAGCACAGUGAAAUUUACAGAAGGGCAGAGCAA [G33U G34U]
4. AGUUGACGACGGGAGCUCCAGCACAGUGAAAUGGACAGAGCGGCAGAGCAA [C6A U7C C9A U10C A40G G41C]
5. AGUUUCUUUUGGGAGUACCAGCACAGUGAAAUGGACAGAAGGGCAGAGCAA [G5U G8U C9U C16U U17A]
6. AGUUACCACCGGGAGCUCCAGCACAGUGAAAUGGACAACAGGGCAGAGCAA [G5A U7C G8A U10C G38A A39C]

1. 0.234
2. 0.237
3. 0.0123
4. 3.6
5. 0.0519
6. 1.95
